Target: T1, human claudin 18A1 (CLD18A1) (human, UniProt P56856 1-261)
T1 construct: also called CLD18.1; claudin 18 splice variant 1
T1 sequence: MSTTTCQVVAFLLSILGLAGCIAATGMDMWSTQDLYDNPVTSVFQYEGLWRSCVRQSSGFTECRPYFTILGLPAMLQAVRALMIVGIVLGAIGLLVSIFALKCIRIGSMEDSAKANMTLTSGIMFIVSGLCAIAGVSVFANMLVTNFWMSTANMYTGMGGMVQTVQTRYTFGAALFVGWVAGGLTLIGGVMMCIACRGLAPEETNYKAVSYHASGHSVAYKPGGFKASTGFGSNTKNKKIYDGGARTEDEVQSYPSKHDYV
Test: flow cytometry, hybridoma supernatant on HEK293 cells stably transfected with human CLD18A1
reported.metric: binding result

[[record]]
binder = "murine monoclonal antibody 3E12 (hybridoma supernatant) (antibody, V domains shown, Mouse hybridoma antibody tested as supernatant) VH: QVQLQQSGPELVKPGALVKISCKASGYTFTSYDINWVKQRPGQGLEWIGWIYPGDGSTKYNEKFKGKATLTADKSSSTAYMQLSSLTSENSAVYFCARGGYRYDEAMDYWGQGTTVTVSS VL: QIVLTQSPAIMSASPGEKVTMTCSASSSISYMHWYQQKPGTSPKRWIYDTSKLASGVPARFSGSGSGTSYSLTISSMEAEDAATYYCHQRSSYPYTFGGGTKLEIKR"
reported_metric = "binding result"
data_value = "no binding"

[[record]]
binder = "murine monoclonal antibody 2B1 (hybridoma supernatant) (antibody, V domains shown, Mouse hybridoma antibody tested as supernatant) VH: QVQLQQSGAELARPGASVKMSCKASGYTFTSYTMHWVKQRPGQGLEWIGYINPSSGYTNYNQKFKDKATLTADKSSSTAYMQLSSLTSEDSAVYYCARIYYGNSFAYWGQGTTVTVSS VL: DIVMTQSPSSLTVTAGEKVTMSCKSSQSLLNSGNQKNYLTWYQQKPGQPPKLLIYWASTRESGVPDRFTGSGSGTDFTLTISSVQAEDLAVYYCQNDYSYPLTFGAGTKLELKR"
reported_metric = "binding result"
data_value = "no binding"

[[record]]
binder = "murine monoclonal antibody 8E5 (hybridoma supernatant) (antibody, V domains shown, Mouse hybridoma antibody tested as supernatant) VH: DVQLQESGPDLVKPSQSLSLTCTVTGYSITSGYNWHWIRQFPGNKMEWMGYIHYTGSTNYNPSLRSRISITRDTSKNQFFLQLNSVTTDDTATYYCTRIYNGNSFPYWGQGTSVTVSS VL: DIVMTQSPSSLTVTPGEKVTMTCKSSQSLFNSGNQKNYLTWYQQRPGQPPKMLIYWASTRESGVPDRFTGSGSGTDFTLTISSVQAEDLAVFYCQNAYSFPYTFGGGTKLEIKR"
reported_metric = "binding result"
data_value = "no binding"

[[record]]
binder = "murine monoclonal antibody 4A11 (hybridoma supernatant) (antibody, V domains shown, Mouse hybridoma antibody tested as supernatant; the latter is used) VH: QIQLVQSGPELKKPGETVKISCKASGYTFTNYGMNWVKQAPGKGLKWMGWINTNTGEPTYAEEFKGRFAFSLETSASTAYLQINNLKNEDTATYFCARFSYGNSFAYWGQGTTVTVSS VL: DIVMTQSPSSLSVSAGEKVTMSCKSSQSLLNSGNQKNYLAWYQQKPGQPPKLLIYGASTRESGVPDRFTGSGSGTDFTLTISSVQAEDLAVYYCQNDHSYPLTFGAGTKLELKR"
reported_metric = "binding result"
data_value = "no binding"

